Numbers sourced from the supplement of paper PMC6522484.

- Test system: DLD1
- protocol: TCF/Wnt firefly luciferase reporter signal relative to plate median (fraction of plate median); higher = higher Wnt reporter signal
- run.conditions: 5 µM; treatment time 24 h; reporter: 7TFP
recorded.endpoint: TCF/Wnt firefly luciferase reporter signal
API doc: respond with a numeric literal and nothing else, no unit.

Request: Look up TCF/Wnt firefly luciferase reporter signal with DLD1 for this compound: NS(=O)(=O)c1cc(C2(O)NC(=O)c3ccccc32)ccc1Cl (stereo unspecified)
Result: 0.958

Request: Look up TCF/Wnt firefly luciferase reporter signal with DLD1 for this compound: CCOC(=O)C1=C(COCCN)NC(C)=C(C(=O)OC)C1c1ccccc1Cl (stereo unspecified)
Result: 1.02

Request: Look up TCF/Wnt firefly luciferase reporter signal with DLD1 for this compound: COc1ccc(/C=C/C(=O)c2ccc(O)cc2O)cc1OC
Result: 1.03

Request: Look up TCF/Wnt firefly luciferase reporter signal with DLD1 for this compound: COc1ccc(C(=O)CC(=O)c2ccc(C(C)(C)C)cc2)cc1
Result: 1

Request: Look up TCF/Wnt firefly luciferase reporter signal with DLD1 for this compound: CC(=O)OC(C)(C)[C@@H]1Cc2cc3ccc(=O)oc3cc2O1
Result: 0.896

Request: Look up TCF/Wnt firefly luciferase reporter signal with DLD1 for this compound: CCn1cc(C(=O)O)c(=O)c2cnc(N3CCCC3)nc21
Result: 0.856

Request: Look up TCF/Wnt firefly luciferase reporter signal with DLD1 for this compound: C[n+]1cc2c3c(ccc2c2ccc4cc5c(cc4c21)OCO5)OCO3
Result: 1

Request: Look up TCF/Wnt firefly luciferase reporter signal with DLD1 for this compound: CN1C(C)(C)CCCC1(C)C
Result: 0.982

Request: Look up TCF/Wnt firefly luciferase reporter signal with DLD1 for this compound: C1CCN2C[C@@H]3C[C@H](CN4CCCC[C@@H]34)[C@H]2C1
Result: 0.883

Request: Look up TCF/Wnt firefly luciferase reporter signal with DLD1 for this compound: Cc1cn[nH]c1
Result: 0.768

Request: Look up TCF/Wnt firefly luciferase reporter signal with DLD1 for this compound: CN/C(=N\CCSCc1nc[nH]c1C)NC#N
Result: 1.12

Request: Look up TCF/Wnt firefly luciferase reporter signal with DLD1 for this compound: CCN(CC)CCNC(=O)c1ccc(N)cc1
Result: 1.04

Request: Look up TCF/Wnt firefly luciferase reporter signal with DLD1 for this compound: CC(=O)NCCc1ccccc1
Result: 1.03

Request: Look up TCF/Wnt firefly luciferase reporter signal with DLD1 for this compound: Nc1nc(=O)c2c([nH]1)NCC(CNc1ccc(C(=O)N[C@@H](CCC(=O)O)C(=O)O)cc1)N2C=O (stereo partly specified)
Result: 1.02

Request: Look up TCF/Wnt firefly luciferase reporter signal with DLD1 for this compound: CCC(CCC(C)C1CCC2C3CCC4CC(O)CCC4(C)C3CCC12C)C(C)C (stereo unspecified)
Result: 1.23

Request: Look up TCF/Wnt firefly luciferase reporter signal with DLD1 for this compound: COC1C(OC(C)=O)C(C)OC(OC2C(Oc3cccc4c(OC(C)=O)c5c(=O)oc6ccc(C)c7c(=O)oc(c34)c5c67)OC(C)C(OC(C)=O)C2OC(C)=O)C1OC(C)=O (stereo unspecified) [Chartreusin-pentaacetate]
Result: 1.09

Request: Look up TCF/Wnt firefly luciferase reporter signal with DLD1 for this compound: O=C(O)[C@]1(O)C[C@@H](O)[C@@H](O)[C@H](O)C1
Result: 1.08

Request: Look up TCF/Wnt firefly luciferase reporter signal with DLD1 for this compound: Cn1nnnc1SCC1=C(C(=O)O)N2C(=O)[C@@H](NC(=O)[C@H](O)c3ccccc3)[C@H]2SC1
Result: 0.878

Request: Look up TCF/Wnt firefly luciferase reporter signal with DLD1 for this compound: Cc1cc(C(C)(C)C)cc(C)c1CC1=NCCN1
Result: 0.957

Request: Look up TCF/Wnt firefly luciferase reporter signal with DLD1 for this compound: CN(C)[C@@H]1C(O)=C(C(N)=O)C(=O)[C@@]2(O)C(O)=C3C(=O)c4c(O)ccc(Cl)c4[C@@H](O)[C@H]3C[C@@H]12
Result: 0.924

Request: Look up TCF/Wnt firefly luciferase reporter signal with DLD1 for this compound: CN1CCCN=C1COC(=O)C(O)(c1ccccc1)C1CCCCC1 (stereo unspecified)
Result: 1.08
